assayed.system: Ubiquitin carboxyl-terminal hydrolase 2 (Homo sapiens)
method.description: Ub-rhodamine 110 based assay for inhibitors Ubiquitin-specific Protease USP2a; also: nearly all actives have a fitted effect of over 50% in size
experimental.parameters: USP2a Ub-rhodamine110 cleavage, fluorescence; series mostly up to 38.3 µM
Records with an inconclusive call do not appear. Active and inactive are the calls of the source. Calls follow the shape of the dose curve; as a rule, active = well fitted inhibition curve with a large enough effect; inconclusive = small, poorly fitted or top-dose-only effect, or effect the other way; inactive = flat fitted curve, though single readings scatter.
The categories you may choose from are T for active, F for inactive

Completed entries (count: 3):
{"compound": "Cc1ccc(/C=C2/SC(=S)N(c3ccc(S(=O)(=O)Nc4nccs4)cc3)C2=O)cc1", "discrete.label": "T"}
{"compound": "C=CC#CC[N+]1(CC#Cc2ccccc2)CCOCC1", "discrete.label": "F"}
{"compound": "N#C/C(=C\\c1ccc(O)c(O)c1)C(=O)Nc1cccc2ncccc12", "discrete.label": "T"}

Record lookup: outcome of this test for `CCn1c(SCC(=O)NCCc2ccccc2)nnc1-c1cccs1` ?
F

meta.source: PubChem BioAssay AID493170
